Known β-galactosidase activity, yeast two-hybrid; CPA of a selection of binders
# System Name: T1, Gal4 transcriptional activation domain (AD) fused in frame with AR (pGAD-C2) (yeast, UniProt P10275 1-920, limits assumed)
# T1 sequence (looked up): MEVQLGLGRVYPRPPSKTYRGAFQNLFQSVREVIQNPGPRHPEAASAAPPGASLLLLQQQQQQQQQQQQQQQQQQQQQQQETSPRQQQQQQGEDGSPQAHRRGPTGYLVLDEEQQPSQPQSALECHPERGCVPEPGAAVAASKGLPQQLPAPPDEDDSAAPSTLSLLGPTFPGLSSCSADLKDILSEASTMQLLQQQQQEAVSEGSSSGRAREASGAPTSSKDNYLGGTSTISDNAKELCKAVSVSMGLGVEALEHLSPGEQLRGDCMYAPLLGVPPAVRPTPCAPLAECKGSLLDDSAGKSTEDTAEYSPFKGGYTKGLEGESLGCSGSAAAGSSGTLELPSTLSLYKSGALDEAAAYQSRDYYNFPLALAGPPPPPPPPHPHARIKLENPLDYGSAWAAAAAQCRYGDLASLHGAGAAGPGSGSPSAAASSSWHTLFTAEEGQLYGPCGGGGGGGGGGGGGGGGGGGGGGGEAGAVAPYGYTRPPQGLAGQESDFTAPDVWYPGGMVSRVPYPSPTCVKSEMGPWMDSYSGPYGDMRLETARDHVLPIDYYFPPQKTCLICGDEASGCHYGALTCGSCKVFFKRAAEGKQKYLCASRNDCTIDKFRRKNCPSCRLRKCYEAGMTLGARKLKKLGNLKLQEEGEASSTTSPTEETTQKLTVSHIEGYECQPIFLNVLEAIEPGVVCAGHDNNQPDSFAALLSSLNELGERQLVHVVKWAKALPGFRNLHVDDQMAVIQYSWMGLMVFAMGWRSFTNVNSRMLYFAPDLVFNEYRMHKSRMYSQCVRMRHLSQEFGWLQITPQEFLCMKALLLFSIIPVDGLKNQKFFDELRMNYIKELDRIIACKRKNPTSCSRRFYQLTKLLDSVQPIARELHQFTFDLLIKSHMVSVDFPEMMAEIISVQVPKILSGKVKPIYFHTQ
# Experiment Summary: cell-based or functional assay
Please reply with the number alone, leaving off any unit.

Below, each entry is followed by its recorded β-galactosidase activity, yeast two-hybrid; CPA result.
Binder	Obs Value
B2A7 (peptide) MKLLSSIEQACDICRLKKLKCSKEKPKCAKCLKNNWECRYSPKTKRSPLTRAHLTEVESRLERLEQLFLLIFPREDLDMILKMDSLQDIKALLTGLFVQDNVNKDAVTDRLASVETDMPLTLRQHRISATSSSEESSNKGQRQLTVSEFPELLAMTRWGRHAALLEPQRLPPPRTTTQPQTEFERMFFFTRPMRTTGLLDLQPS	0.292
M2H3 (peptide) MKLLSSIEQACDICRLKKLKCSKEKPKCAKCLKNNWECRYSPKTKRSPLTRAHLTEVESRLERLEQLFLLIFPREDLDMILKMDSLQDIKALLTGLFVQDNVNKDAVTDRLASVETDMPLTLRQHRISATSSSEESSNKGQRQLTVSEFRQSFVSEILGGGWLPLDLQPS	8.59
B8A10 (peptide) MKLLSSIEQACDICRLKKLKCSKEKPKCAKCLKNNWECRYSPKTKRSPLTRAHLTEVESRLERLEQLFLLIFPREDLDMILKMDSLQDIKALLTGLFVQDNVNKDAVTDRLASVETDMPLTLRQHRISATSSSEESSNKGQRQLTVSEFVNWDAVVPWSELVALLDLQPS	0.395

Now for the binder whose β-galactosidase activity, yeast two-hybrid; CPA we want.
Query :: Form field: reported β-galactosidase activity, yeast two-hybrid; CPA of M4D1 (peptide) MKLLSSIEQACDICRLKKLKCSKEKPKCAKCLKNNWECRYSPKTKRSPLTRAHLTEVESRLERLEQLFLLIFPREDLDMILKMDSLQDIKALLTGLFVQDNVNKDAVTDRLASVETDMPLTLRQHRISATSSSEESSNKGQRQLTVSEFRFPFHEMVREWESMGLERVRYAEP
Result :: -0.0396

The reported numbers originate from patent US20030224390A1.
